B1: CDC25B (parent)
chain: FVDILESDLKDDDAVPPGMESLIS

Variants of: B1
Assay: protein stability index of a GFP-peptide fusion (GPS, HEK-293T) (PSI 1-6); higher = more stable;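 further: lentivirally expressed fusions sorted by FACS into six bins by GFP to DsRed ratio, PSI derived from sequencing read proportions per bin multiplied by bin number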
Conditions: c terminus: a fixed tail appended
Everything with protein stability index lower than 3 is F; everything else, including exactly 3, is T.

{"columns": ["SEQ_STRING", "CATEGORY"],
 "data": [
  ["FVDILESDLKDDDAVPDGMESLIS", "T"],
  ["FVDILESDLKDNDAVPPGMESLIS", "F"],
  ["FVDILESDLWDDDAVPPGMESLIS", "F"],
  ["FVDILESDLLDDDAVPPGMESLIS", "F"],
  ["FHDILESDLKDDDAVPPGMESLIS", "T"],
  ["FVDILESPLKDDDAVPPGMESLIS", "F"],
  ["FVDILESDLKDDDASPPGMESLIS", "T"],
  ["FRDILESDLKDDDAVPPGMESLIS", "T"],
  ["FVDILESSLKDDDAVPPGMESLIS", "F"],
  ["FVDILESVLKDDDAVPPGMESLIS", "F"],
  ["FVDILESDLKDDDAVPEGMESLIS", "T"],
  ["FVDWLESDLKDDDAVPPGMESLIS", "F"],
  ["FVDILESDLKDDDAVPPGMESLIW", "F"],
  ["YVDILESDLKDDDAVPPGMESLIS", "T"],
  ["FVDILELDLKDDDAVPPGMESLIS", "F"],
  ["FVDILESDLKDDDAVPPDMESLIS", "T"],
  ["FVDILESDLKDFDAVPPGMESLIS", "F"],
  ["FVDILESDLKDDQAVPPGMESLIS", "F"],
  ["FVDILESDLKDDDAVPPGMESLRS", "F"],
  ["FVDILESDLKDDDAEPPGMESLIS", "T"],
  ["FVDILESDLKDDDAVNPGMESLIS", "T"],
  ["FVDILESDLKDDDAVPMGMESLIS", "F"],
  ["FVDILESDLKDDDAVPPGMFSLIS", "F"],
  ["FVDTLESDLKDDDAVPPGMESLIS", "T"],
  ["FVDILESDLKIDDAVPPGMESLIS", "F"],
  ["FVDILESDLADDDAVPPGMESLIS", "F"],
  ["FVDILESDLPDDDAVPPGMESLIS", "T"],
  ["FVDILESDLKDDDAVPPGMERLIS", "F"],
  ["TVDILESDLKDDDAVPPGMESLIS", "T"],
  ["FVDILESDLKDDYAVPPGMESLIS", "F"],
  ["FVDILESYLKDDDAVPPGMESLIS", "F"],
  ["FVDILESDLKCDDAVPPGMESLIS", "F"],
  ["FVDILESLLKDDDAVPPGMESLIS", "F"],
  ["FVDILESDLKDDDAVPPGMEYLIS", "F"]
]}
